Each record here notes measured melting point.

MOLECULE_SMILES: COc1nc(C)cnc1NS(=O)(=O)c1cccnc1-c1ccc(C(C)(C)C)cc1
REPORTED_ENDPOINT: melting point
EXPERIMENTAL_VALUE: 150 to 151 °C
--
MOLECULE_SMILES: CC(C)CN1C(=O)[C@@H](CC(=O)O)N=C(c2ccccc2Cl)c2cc(Cl)ccc21
REPORTED_ENDPOINT: melting point
EXPERIMENTAL_VALUE: 175 to 178 °C
--
MOLECULE_SMILES: O=C1OC2(CCN(C(=O)Nc3cnc(-c4ccccc4)cn3)CC2)c2cc(F)ccc21
REPORTED_ENDPOINT: melting point
EXPERIMENTAL_VALUE: 222 to 224 °C
--
MOLECULE_SMILES: Cc1nc(Sc2ncccc2CC(=O)O)sc1CC(=O)O
REPORTED_ENDPOINT: melting point
EXPERIMENTAL_VALUE: 172 to 174 °C
--
MOLECULE_SMILES: CCN1CCC(N(C)S(=O)(=O)c2ccc(Nc3nccc(Nc4ccc(F)cc4)n3)cc2)CC1
REPORTED_ENDPOINT: melting point
EXPERIMENTAL_VALUE: 162 to 163 °C
--
MOLECULE_SMILES: CSc1cccc(Oc2ncccc2C(=O)NCc2ccc(C(C)(C)O)cc2)c1
REPORTED_ENDPOINT: melting point
EXPERIMENTAL_VALUE: 107 to 109 °C
--
MOLECULE_SMILES: CC(C)(C)NS(=O)(=O)c1c(S)cccc1C(F)(F)F
REPORTED_ENDPOINT: melting point
EXPERIMENTAL_VALUE: 139 °C
--
MOLECULE_SMILES: CCCC(=O)c1cnc2c(OC)cccc2c1Nc1c(C)cc(O)c(O)c1C
REPORTED_ENDPOINT: melting point
EXPERIMENTAL_VALUE: 151 to 153 °C
--
MOLECULE_SMILES: C[C@H](c1ccccc1)n1c(=O)[nH]c2cc(Cl)cc(Cl)c2c1=O
REPORTED_ENDPOINT: melting point
EXPERIMENTAL_VALUE: 205 to 210 °C

Task item: Name the recorded melting point of the molecule listed here: CCOc1csc(N)c1C#N
Reply: 145 to 146 °C

Hello, the source for this data is a melting point compilation (Tetko et al.; mined from patent text by program, amines drawn as free bases though some values may be those of a salt), in case you need it.
